Examples of binders with documented Fold Induction of luciferase activity, TF-1/Stat3-Luc reporter cells follow.
System Tested: T1, IL10 receptor (IL10 receptor subunit alpha IL10Ra and beta subunit IL10Rb) on Ramos/STAT3-Luc and … (UniProt Q13651 22-578; Q08334 20-325, limits assumed)
T1 sequence (looked up) 1: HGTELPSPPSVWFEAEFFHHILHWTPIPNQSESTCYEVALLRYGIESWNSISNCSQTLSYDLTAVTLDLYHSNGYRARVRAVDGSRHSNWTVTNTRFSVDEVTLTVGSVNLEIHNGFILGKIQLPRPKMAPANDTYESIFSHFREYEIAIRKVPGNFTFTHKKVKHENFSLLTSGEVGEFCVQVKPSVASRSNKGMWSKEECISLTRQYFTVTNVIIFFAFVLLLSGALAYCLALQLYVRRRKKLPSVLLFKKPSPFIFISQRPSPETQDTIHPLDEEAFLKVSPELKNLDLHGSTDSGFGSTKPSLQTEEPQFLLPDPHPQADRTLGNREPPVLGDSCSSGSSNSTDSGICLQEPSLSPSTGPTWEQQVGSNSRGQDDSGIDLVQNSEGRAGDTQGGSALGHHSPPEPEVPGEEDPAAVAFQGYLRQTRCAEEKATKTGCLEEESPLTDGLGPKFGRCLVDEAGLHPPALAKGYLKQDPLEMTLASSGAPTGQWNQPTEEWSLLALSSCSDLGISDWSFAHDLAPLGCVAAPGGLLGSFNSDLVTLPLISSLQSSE
T1 sequence (looked up) 2: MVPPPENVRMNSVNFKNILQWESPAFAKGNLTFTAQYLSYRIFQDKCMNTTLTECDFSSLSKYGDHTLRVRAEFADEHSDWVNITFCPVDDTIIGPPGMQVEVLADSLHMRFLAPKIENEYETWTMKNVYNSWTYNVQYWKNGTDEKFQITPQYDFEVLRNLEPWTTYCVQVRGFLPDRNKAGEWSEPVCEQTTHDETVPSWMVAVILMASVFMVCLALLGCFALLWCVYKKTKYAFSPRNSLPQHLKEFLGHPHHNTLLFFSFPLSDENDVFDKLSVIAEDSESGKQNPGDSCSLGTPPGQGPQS
Assay Protocol: cell-based or functional assay
The response must be a number in fold with no trailing unit.

Binder	Recorded Result
IL10M5 (Fc-1XG4S-hIL10; Fc is IgG4s) (Fc fusion) ESKYGPPCPPCPAPPVAGPSVFLFPPKPKDTLMISRTPEVTCVVVDVSQEDPEVQFNWYVDGVEVHNAKTKPREEQFNSTYRVVSVLTVLHQDWLNGKEYKCKVSNKGLPSSIEKTISKAKGQPREPQVYTLPPSQEEMTKNQVSLTCLVKGFYPSDIAVEWESNGQPENNYKTTPPVLDSDGSFFLYSRLTVDKSRWQEGNVFSCSVMHEALHNHYTQKSLSLSLGKGGGGSSPGQGTQSENSCTHFPGNLPNMLRDLRDAFSRVKTFFQMKDQLDNLLLKESLLEDFKGYLGCQALSEMIQFYLEEVMPQAENQDPDIKAHVNSLGENLKTLRLRLRRCHRFLPCENKSKAVEQVKNAFNKLQEKGIYKAMSEFDIFINYIEAYMTMKIRN	3.4

I'd like to know its Fold Induction of luciferase activity, TF-1/Stat3-Luc reporter cells. The binder in question is IL10M6 (hIL10-2XG4S-Fc; Fc is IgG4s) (Fc fusion) SPGQGTQSENSCTHFPGNLPNMLRDLRDAFSRVKTFFQMKDQLDNLLLKESLLEDFKGYLGCQALSEMIQFYLEEVMPQAENQDPDIKAHVNSLGENLKTLRLRLRRCHRFLPCENKSKAVEQVKNAFNKLQEKGIYKAMSEFDIFINYIEAYMTMKIRNGGGGSGGGGSESKYGPPCPPCPAPPVAGPSVFLFPPKPKDTLMISRTPEVTCVVVDVSQEDPEVQFNWYVDGVEVHNAKTKPREEQFNSTYRVVSVLTVLHQDWLNGKEYKCKVSNKGLPSSIEKTISKAKGQPREPQVYTLPPSQEEMTKNQVSLTCLVKGFYPSDIAVEWESNGQPENNYKTTPPVLDSDGSFFLYSRLTVDKSRWQEGNVFSCSVMHEALHNHYTQKSLSLSLGK
2.66

I'd like to know its Fold Induction of luciferase activity, TF-1/Stat3-Luc reporter cells. The binder in question is IL10M8 (hIL10-Fc; Fc is IgG4s) (Fc fusion) SPGQGTQSENSCTHFPGNLPNMLRDLRDAFSRVKTFFQMKDQLDNLLLKESLLEDFKGYLGCQALSEMIQFYLEEVMPQAENQDPDIKAHVNSLGENLKTLRLRLRRCHRFLPCENKSKAVEQVKNAFNKLQEKGIYKAMSEFDIFINYIEAYMTMKIRNESKYGPPCPPCPAPPVAGPSVFLFPPKPKDTLMISRTPEVTCVVVDVSQEDPEVQFNWYVDGVEVHNAKTKPREEQFNSTYRVVSVLTVLHQDWLNGKEYKCKVSNKGLPSSIEKTISKAKGQPREPQVYTLPPSQEEMTKNQVSLTCLVKGFYPSDIAVEWESNGQPENNYKTTPPVLDSDGSFFLYSRLTVDKSRWQEGNVFSCSVMHEALHNHYTQKSLSLSLGK
2.34
